Measured values drawn from the supplement of paper PMC6757056 for this set.

B1: library; a variant is named by its letters at N, in order (parent)
chain: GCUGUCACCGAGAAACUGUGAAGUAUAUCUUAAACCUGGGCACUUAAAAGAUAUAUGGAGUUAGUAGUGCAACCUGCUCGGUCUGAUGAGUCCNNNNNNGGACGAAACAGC

# Variants of: B1
# Assay Procedure: normalized RNA/DNA level with ligand (relative to sTRSVctl = 100) (log10 (% of sTRSVctl)); HEK293T; ligand: cyclic di-GMP (c-di-GMP-II aptamer); ligand concentration (+) RNA-Seq: 1 mM; higher = less ribozyme self-cleavage, higher mRNA level
# Experimental Parameters: reporter: mCherry (pCS4076), ligand present: yes
Measured normalized RNA/DNA level with ligand (log10) by item
Endpoint: normalized RNA/DNA level with ligand (log10)

| Changes | Numeric Readout |
| --- | --- |
| GGGGCC | 1.94 |
| UUGGGC | 1.84 |
| UAAGUU | 1.77 |
| GACUGU | 1.8 |
| CGAGGC | 1.85 |
| AGAUUG | 1.77 |
| UGCGAG | 1.8 |
| GCAAAC | 1.57 |
| CACCAG | 1.88 |
| CAUCUA | 1.58 |
| CCCUAG | 1.84 |
| UGAGGA | 1.75 |
| AAAAAC | 1.74 |
| CGGGUG | 1.82 |
| AUCGAA | 1.67 |
| UUCGAG | 1.81 |
| CCCCUC | 1.87 |
| CACCAA | 1.57 |
| CUUGGA | 1.73 |
| GCCACC | 1.84 |
| AAUUAC | 1.83 |
| CAGGGC | 1.86 |
